biological target: CaHse1; experiment: SPOT peptide array binding signal intensity (averaged, normalized) (arbitrary units (background-subtracted, floor 0; scale differs between SH3 domains)); higher = stronger binding of the SH3 domain to the peptide
Lab note: compare SPOT peptide array binding signal intensity against 20. Equal or greater, write Condition met. Smaller, write Condition not met.

[Q] Decide: is the reported value of SPOT peptide array binding signal intensity for "APKREAPKPPANTSP" equal to or greater than 20?
[A] Condition not met

[Q] Decide: is the reported value of SPOT peptide array binding signal intensity for "TSFKGRPKPPKTLKH" equal to or greater than 20?
[A] Condition not met

[Q] Decide: is the reported value of SPOT peptide array binding signal intensity for "AATTSTPPLPRRRAT" equal to or greater than 20?
[A] Condition not met

[Q] Decide: is the reported value of SPOT peptide array binding signal intensity for "TPEIPPPLPPKIMVH" equal to or greater than 20?
[A] Condition met

[Q] Decide: is the reported value of SPOT peptide array binding signal intensity for "DLFKPLPEPPTELGR" equal to or greater than 20?
[A] Condition not met

[Q] Decide: is the reported value of SPOT peptide array binding signal intensity for "DLPLPDLPPEPPTEL" equal to or greater than 20?
[A] Condition not met

[Q] Decide: is the reported value of SPOT peptide array binding signal intensity for "KMSRSPPRPPSLKII" equal to or greater than 20?
[A] Condition met

Where do these numbers come from? They come from the supplement of paper PMC4466140.
